Tested on: DLD1 NRF2-GOF
Assay procedure: TC50 cytotoxicity; higher = less toxic
Condition set: 72 h; CellTox Green cytotoxicity
Recorded TC50 cytotoxicity by entry

Some solved entries appear below for comparison.
Smi	Assay target	Experimental value
C[C@H]1O[C@@H](O[C@H]2[C@@H](O)C[C@H](O[C@H]3[C@@H](O)C[C@H](O[C@H]4CC[C@@]5(C)[C@H](CC[C@@H]6[C@@H]5C[C@@H](O)[C@]5(C)[C@@H](C7=CC(=O)OC7)CC[C@]65O)C4)O[C@@H]3C)O[C@@H]2C)C[C@H](O)[C@@H]1O	DLD1 NRF2-GOF	0.217 µM
CC(C)(O)CC(=O)NCCn1ccc2ncnc(Nc3ccc(Oc4cccc(C(F)(F)F)c4)c(Cl)c3)c21	DLD1 NRF2-GOF	> 2.5 µM
NC1(C(=O)N[C@@H](CCO)c2ccc(Cl)cc2)CCN(c2ncnc3[nH]ccc23)CC1	DLD1 NRF2-GOF	> 10 µM
COC(=O)c1ccc2c(c1)[nH]c1ncnc(NCCCN3CCCCC3)c12	DLD1 NRF2-GOF	> 10 µM
Cc1ncc(Cl)cc1NCc1ccc(C(=O)N[C@@H](CC2CCCC2)C(=O)NC2CC2)s1	DLD1 NRF2-GOF	> 5 µM
Cc1ccc(C(=O)Nc2cccc(C(F)(F)F)c2)cc1Nc1nc(-c2cccnc2)nc2c1cnn2C	DLD1 NRF2-GOF	> 10 µM

Switching to the query record.
Asked: Using known records, supply TC50 cytotoxicity for Cn1cnc2c(F)c(Nc3ccc(Br)cc3F)c(C(=O)NOCCO)cc21
Given back: > 1 µM

These measurements were taken from the supplement of paper PMC7600603.
